Recorded growth, one value per entry.
Tested on: TK-10 renal
Experiment: NCI-60 one-dose screen, 48 h (100 = growth as untreated, 0 = no growth, -100 = all killed)
Conditions: 10 µM unless noted
Compounds without any hit were thinned out: in the full panel of roughly 83,000, 20% have a hit.
Give just the numeric value; % need not be written.

Sample records with growth:
CCOC(=O)C#Cc1c(C(=O)OCC)nnn1[C@@H]1O[C@H](COC)[C@@H](OC)[C@H]1OC    11.1
CCOC(=O)C1=C(c2ccccc2)N=C2N(c3ccccc3)N=C(C(C)=O)N2C1c1ccc(F)cc1 (stereo not given)    104
CCCCCc1ccc(S(=O)(=O)Nc2ccc3nc(N)oc3c2)cc1    84.6
COc1ccc2c(c1)CC[C@@H]1[C@@H]2CC[C@]2(C)C3C(=CC(COC(C)=O)C4C(=O)N(c5ccc(Cl)cc5)C(=O)C43)C[C@@H]12 (stereo not given in full)    120
CCOC(=O)CC1CSC(N/N=C/c2ccc(F)c(Br)c2)=N1 (stereo not given)    102
Brc1ccc(Nc2nc(Nc3cnc4ccccc4c3)c3[nH]cnc3n2)cc1    113

COC(=O)c1ccc2cc(OC)c(OC)cc2c1 yielded growth of 103

Entry COc1ccc(N/N=C/c2cn(-c3ccc(C(=O)O)cc3)nc2-c2cc3ccccc3oc2=O)cc1 , growth reported as 97.1

Per the record, Cc1nc([P+](c2ccccc2)(c2ccccc2)c2ccccc2)c(N2CCCCC2)o1 has growth of 53.6

Reported growth ( COc1cc(-c2ccc(-c3ccc(C(=N)N)cc3)s2)cc(OC)c1OC ) = 113

---

Test system: HCC-2998 colon
Assay: NCI-60 one-dose screen, 48 h
Conditions: 10 µM unless noted
This is part of a sample that, as a whole, favours compounds with a hit. Of some 83,000 tested, about 20% had one in any assay. Activity calls are given as the source filed them. How the source made its calls: active means growth percent below 10; inactive means the rest.
Outcomes you can answer with include only these: Y for active, N for inactive

N#C/C(=C\c1ccc(-c2cccc(Cl)c2)o1)C(=O)Nc1ncc(Cc2ccc(Cl)cc2)s1    N
CCCCCCCCn1ccc2cc(NC(=O)CN=[N+]=[N-])ccc21    N
CCOc1ccc(/C=C/C(=O)c2cccc(OCCCOc3cccc(C(=O)/C=C/c4ccc(OCC)cc4)c3)c2)cc1    N
C(=C(\C1=NCCN1)n1ccc2ccccc21)/c1ccccc1    N

Recorded call for CCCn1c(=S)sc2c(NNC(C)=O)nc(C)nc21 ?
N

Recorded call for COc1ccc(CN2C(=O)OC(C)(COC(C)=O)C2=O)cc1 (stereo not given) ?
N

Status in this test for CC1(C)CC[C@]23CC[C@]4(C)[C@H](CC[C@@H]5[C@@]6(C)C/C(=C/O)C(=O)C(C)(C)[C@@H]6CC[C@]54C)[C@H]2[C@H]1OC3 ?
N

Tell me the assay call for O=C1CCCCN1c1ccc(C2=NCCCN2)cc1 please.
N

Look up the recorded call for O=C1OCC2=C1C(c1ccccc1)c1cc3c(cc1N2CCO)OCCO3 (stereo not given) in this test.
Y

Can you look up the reported call for CN(C)CCC(CCN(C)C)(C(=O)O)c1ccccc1 for me?
N

Check the results log: what was the call for CCCCCCCCn1ccc2cc(NC(=O)CN3CCN(c4cc(C)nc(Cl)n4)CC3)ccc21 ?
N

---

System: U251 CNS
Assay: NCI-60 one-dose screen, 48 h (100 = growth as untreated, 0 = no growth, -100 = all killed)
Conditions: 10 µM unless noted
Method: Growth inhibition of the U251 human tumor cell line is measured as a screen for anti-cancer activity. Cells are grown in 96 well plates and exposed to the test compound for 48 hours. Compounds are tested at a single concentration, which is 10^-5 M for most compounds. The reported endpoint is percent growth (GI% or GIPRCNT), where numbers from 0 - 100% represent growth inhibition, and numbers from -100% - 0 represent cell death. For example, a value of 40 represents 60% growth inhibition. […]
This is part of a sample that, as a whole, favours compounds with a hit. Of some 83,000 tested, about 20% had one in any assay.
measurement label: growth (%)
Respond with the bare value in %.

// below: answered compounds
c1ccc(Cn2cc3c(c2-c2ccccc2)CCc2cnoc2-3)cc1    55.5
Fc1cccc(CNc2c3ccccc3nc3ccccc23)c1    35.2
O=C(c1cccc(N2CCOCC2)n1)c1c[nH]c2ccccc12    91.7
COc1ccc(/C=N/Nc2c3ccccc3nc3ccccc23)cc1    93.4
CCCCCCCCn1ccc2cc(NC(=O)CN=[N+]=[N-])ccc21    88.7

Please look at the following compound next.
Lab note: measured growth of O=S(=O)(N=C1C(Cl)=C(Cl)C(=NS(=O)(=O)c2ccccc2)C(Cl)=C1Cl)c1ccccc1 was 59.8

---

System: SF-539 CNS
Assay: NCI-60 one-dose screen, 48 h (100 = growth as untreated, 0 = no growth, -100 = all killed)
Details: 10 µM unless noted
The panel holds about 83,000 compounds, 20% with a hit somewhere; the sample as a whole holds those more often.
Field: label. Allowed values: True (growth < 90%) or False (growth >= 90%).

Nc1cccc(-c2ccc(COc3ccc(CC4SC(=O)NC4=O)cc3)cc2)c1 (stereo not given)    True
CCN(CC)C(=O)CC1=C(C)/C(=C/c2[nH]c(-c3ccc[nH]3)cc2OC)N=C1C    True
CCOC(=O)c1cnn(CC(C)O)c1NC(=O)NCc1ccccc1C(F)(F)F (stereo not given)    False
COc1cc(/C=C/c2cn[nH]c2-c2ccc(C)cc2)cc(OC)c1OC    True
CCN(CC)CCCNc1cc(OC)c(OC)c2cccnc12    True
Cc1ccc2c(c1)=C/C(=C\c1cc(-c3ccccc3)[nH]c1O)C(=O)N=2    True
COC(=O)[C@@]1(C)CC[C@]2(C)CC[C@]3(C)C4=CC=C5C(=CC(=O)C(O)=C5C)[C@]4(C)[C@@H](O)C[C@@]3(C)[C@@H]2C1    True

Is it true that growth reported for O=S(O)c1cc(Cl)cc(Cl)c1OCc1ccccc1 is less than 90%?
False

---

Item-by-item account of growth
System: OVCAR-5 ovarian
Assay: NCI-60 one-dose screen, 48 h (100 = growth as untreated, 0 = no growth, -100 = all killed)
Details: 10 µM unless noted
This is part of a sample that, as a whole, favours compounds with a hit. Of some 83,000 tested, about 20% had one in any assay.
Express it in %; write the number only.

COc1ccc(-c2nc3c(c(-c4ccc(Cl)cc4)nn3-c3ccccc3)c(-c3ccccc3)c2C#N)cc1    103
C=CCn1cc(-c2nc3ccccc3s2)c2cc(-c3ccc4c5c(cccc35)C(=O)N(CCO)C4=O)ccc21    92.9
Cc1nc2ccccc2c(/C=C/c2ccc(F)cc2)c1C(=O)/C=C/c1ccccc1    -22
COc1cc(-c2cc(-c3ccc(Nc4nc(Nc5ccc(Cl)cc5)nc(Nc5ccc(Cl)cc5)n4)cc3)no2)cc(OC)c1OC    77.8
CC1(C)CC[C@]23CC[C@]4(C)[C@H](CC[C@@H]5[C@@]6(C)C/C(=C/O)C(=O)C(C)(C)[C@@H]6CC[C@]54C)[C@H]2[C@H]1OC3    107
ClCCn1cnc2c(SCc3ccccc3)ncnc21    101
O=C(NCCNC(c1ccccc1)C(NCCNC(=O)c1ccccc1)c1ccccc1)c1ccccc1 (centres undefined)    83.8
CCOC(=O)c1cnn(CC(C)O)c1NC(=O)NCc1ccccc1C(F)(F)F (centres undefined)    102

For this compound ( Clc1ccc(-c2nc(C(Cl)Cl)nc3cc(-c4ccccc4)nn23)cc1 ), measured growth is 17

Entry C=C(C)[C@@H]1CC[C@]2(C)[C@H](C=CC3=C4C[C@@](C)(CO)CC[C@]4(C)CC[C@]32C)[C@@]1(C)CCCN — recorded growth = 19.1

Measured growth, Nc1nc(N(Cc2ccccc2)c2ccccc2)c2cn[nH]c2n1 : 100

Form field growth, entry Brc1ccc(Nc2nc(Nc3cnc4ccccc4c3)c3[nH]cnc3n2)cc1 : 101

Record summary for C[C@@H]1NC(=O)[C@H](Cc2ccccc2)N(Cc2cccnc2)C1=O : reported growth = 96.7

---

System: IGROV1 ovarian
Experiment: NCI-60 one-dose screen, 48 h
Conditions: 10 µM unless noted
About 83,000 compounds went through this panel and 20% of them were active in at least one assay; those are over-represented in the sample as a whole. Calls of active or inactive are those of the source. Rule for the calls: active = growth percent below 10; inactive = the rest.
Give one outcome, nothing more. List: active, inactive

Below, 5 compounds whose answers are already recorded.
CC/C(=C(/c1ccc(O)cc1)c1ccc(OCCN2CCCCC2)cc1)c1ccc(OC)cc1    inactive
COc1ccc(CNc2ccc3nc(NC(=O)CN4CCCCCC4)sc3c2)cc1    inactive
CCOC(=O)C(CCN(C)C)c1ccccc1 (centres undefined)    inactive
O=C(Cn1nc(-c2cccc3ccccc23)ccc1=O)NCc1cccc(Cl)c1    inactive
Nc1cc(-c2ccc(Cl)cc2)nn1-c1nnc(/C=C/c2ccco2)c(=O)[nH]1    inactive

Query compound follows.
# outcome recorded in this test, key = O=C(NC1CCC(Br)CC1)C1CCCC(S(=O)(=O)NC2CCCCC2)C1 (centres undefined)
inactive
